- Target system: UniProtKB P20309
- Sequence (P20309 whole entry): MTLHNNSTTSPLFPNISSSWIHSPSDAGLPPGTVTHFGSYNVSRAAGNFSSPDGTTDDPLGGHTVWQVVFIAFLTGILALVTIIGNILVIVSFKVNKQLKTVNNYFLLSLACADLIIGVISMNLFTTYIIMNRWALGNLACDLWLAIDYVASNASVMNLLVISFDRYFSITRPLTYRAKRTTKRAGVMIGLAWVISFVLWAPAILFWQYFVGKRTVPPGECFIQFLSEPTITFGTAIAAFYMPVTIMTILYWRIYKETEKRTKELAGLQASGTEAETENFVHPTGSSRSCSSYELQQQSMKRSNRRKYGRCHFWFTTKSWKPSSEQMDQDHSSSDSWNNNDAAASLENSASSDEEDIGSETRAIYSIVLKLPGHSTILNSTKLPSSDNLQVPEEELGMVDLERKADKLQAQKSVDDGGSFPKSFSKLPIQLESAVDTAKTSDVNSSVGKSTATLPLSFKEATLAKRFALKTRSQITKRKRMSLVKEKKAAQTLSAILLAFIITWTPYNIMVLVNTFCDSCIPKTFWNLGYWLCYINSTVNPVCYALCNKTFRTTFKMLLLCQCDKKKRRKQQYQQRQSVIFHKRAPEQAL
Reported metric: Ki (nM)
One number for each entry, in nM.

Q. Would you kindly share the measured Ki for CCN(CCCNC(=O)c1ccc(-c2ccncc2)cc1)CCNC(=O)c1cc(I)cc(OC)c1OC ?
A. 1780

---

- Target system: serotonin 5-HT2A (Homo sapiens, UniProt P28223)
- Sequence (P28223 whole entry): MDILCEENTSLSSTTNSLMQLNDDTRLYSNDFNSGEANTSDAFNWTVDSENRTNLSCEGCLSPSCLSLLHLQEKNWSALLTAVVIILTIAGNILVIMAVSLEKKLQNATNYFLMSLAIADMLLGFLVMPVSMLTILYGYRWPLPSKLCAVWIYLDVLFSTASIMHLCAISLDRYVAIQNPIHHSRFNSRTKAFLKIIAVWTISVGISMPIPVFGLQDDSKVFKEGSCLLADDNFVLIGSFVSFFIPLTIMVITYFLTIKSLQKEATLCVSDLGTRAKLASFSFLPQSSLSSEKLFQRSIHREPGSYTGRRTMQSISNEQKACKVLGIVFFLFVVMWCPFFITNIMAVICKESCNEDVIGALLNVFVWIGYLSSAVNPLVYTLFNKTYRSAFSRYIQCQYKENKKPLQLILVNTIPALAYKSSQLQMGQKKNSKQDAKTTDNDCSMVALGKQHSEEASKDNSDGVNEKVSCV
- Assay details: PDSP binding screen
- Study conditions: HCl salt
Reported metric: pKi
Numbers only, as −log10 of the molar value.

Q. Would you kindly share the measured pKi for CCN(CCCNC(=O)c1ccc(-c2ccncc2)cc1)CCNC(=O)c1cc(I)cc(OC)c1OC ?
A. 6.51

---

- Target system: serotonin transporter (Homo sapiens, UniProt P31645)
- Sequence (P31645 whole entry): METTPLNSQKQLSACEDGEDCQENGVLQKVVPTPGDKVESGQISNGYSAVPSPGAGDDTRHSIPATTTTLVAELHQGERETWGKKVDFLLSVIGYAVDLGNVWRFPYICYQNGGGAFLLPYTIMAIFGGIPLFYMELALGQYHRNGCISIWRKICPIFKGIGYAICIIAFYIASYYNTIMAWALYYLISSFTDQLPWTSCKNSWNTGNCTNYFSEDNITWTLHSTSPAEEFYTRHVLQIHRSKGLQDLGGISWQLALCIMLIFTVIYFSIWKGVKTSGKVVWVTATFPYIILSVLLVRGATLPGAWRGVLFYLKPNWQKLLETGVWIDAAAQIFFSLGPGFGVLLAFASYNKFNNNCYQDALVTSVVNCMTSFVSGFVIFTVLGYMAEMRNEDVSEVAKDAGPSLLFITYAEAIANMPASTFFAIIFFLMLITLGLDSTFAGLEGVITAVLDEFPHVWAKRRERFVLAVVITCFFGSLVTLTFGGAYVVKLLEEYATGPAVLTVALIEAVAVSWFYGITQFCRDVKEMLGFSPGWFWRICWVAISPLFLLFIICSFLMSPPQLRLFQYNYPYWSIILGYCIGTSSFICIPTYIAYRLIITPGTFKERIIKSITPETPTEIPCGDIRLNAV
Reported metric: Ki

Q. Would you kindly share the measured Ki for CCN(CCCNC(=O)c1ccc(-c2ccncc2)cc1)CCNC(=O)c1cc(I)cc(OC)c1OC [HY-3-24] ?
A. 677 nM

---

- Target system: sigma1 (Homo sapiens, UniProt Q99720)
- Sequence (Q99720 whole entry): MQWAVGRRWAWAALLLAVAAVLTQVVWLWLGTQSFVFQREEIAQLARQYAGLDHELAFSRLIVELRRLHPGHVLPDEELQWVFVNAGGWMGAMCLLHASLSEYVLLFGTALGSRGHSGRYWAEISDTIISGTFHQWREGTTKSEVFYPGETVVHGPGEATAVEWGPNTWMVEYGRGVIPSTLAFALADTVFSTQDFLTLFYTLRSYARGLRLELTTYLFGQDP
Reported metric: pKi
One number for each entry, as −log10 of the molar value.

Q. Would you kindly share the measured pKi for CCN(CCCNC(=O)c1ccc(-c2ccncc2)cc1)CCNC(=O)c1cc(I)cc(OC)c1OC ?
A. 5.71

---

- Target system: opioid KOR (Homo sapiens, UniProt P41145)
- Sequence (P41145 whole entry): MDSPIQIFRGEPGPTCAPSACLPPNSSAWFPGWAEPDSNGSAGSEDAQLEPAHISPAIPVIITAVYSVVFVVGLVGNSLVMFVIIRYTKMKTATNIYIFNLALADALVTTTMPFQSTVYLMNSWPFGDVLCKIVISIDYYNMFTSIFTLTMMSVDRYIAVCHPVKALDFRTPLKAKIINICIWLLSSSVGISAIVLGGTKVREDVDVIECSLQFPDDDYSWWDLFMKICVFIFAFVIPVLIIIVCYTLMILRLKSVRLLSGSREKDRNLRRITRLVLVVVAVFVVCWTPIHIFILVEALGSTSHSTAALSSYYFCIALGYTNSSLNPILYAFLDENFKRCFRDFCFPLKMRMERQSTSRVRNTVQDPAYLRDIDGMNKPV
Reported metric: pKi
One number for each entry, as −log10 of the molar value.

Q. # query: pKi | item CCN(CCCNC(=O)c1ccc(-c2ccncc2)cc1)CCNC(=O)c1cc(I)cc(OC)c1OC [HY-3-24] | system: opioid KOR (Homo sapiens, UniProt P41145)
A. 5.81
